I'd appreciate it if you could supply EC50 values for the items below.
molecular target: Human Glucocorticoid Receptor (Homo sapiens, UniProt P04150); construct: endogenous in cells; assay: Functional in vitro glucocorticoid activity assay: Hela cells stably transfected with sPAP reporter gene under MMTV LTR promoter; details: 72 hours incubation, values given as 'less than (about)', read-out: EC50 (sPAP transcription, glucocorticoid activity)
Sequence (P04150 whole entry): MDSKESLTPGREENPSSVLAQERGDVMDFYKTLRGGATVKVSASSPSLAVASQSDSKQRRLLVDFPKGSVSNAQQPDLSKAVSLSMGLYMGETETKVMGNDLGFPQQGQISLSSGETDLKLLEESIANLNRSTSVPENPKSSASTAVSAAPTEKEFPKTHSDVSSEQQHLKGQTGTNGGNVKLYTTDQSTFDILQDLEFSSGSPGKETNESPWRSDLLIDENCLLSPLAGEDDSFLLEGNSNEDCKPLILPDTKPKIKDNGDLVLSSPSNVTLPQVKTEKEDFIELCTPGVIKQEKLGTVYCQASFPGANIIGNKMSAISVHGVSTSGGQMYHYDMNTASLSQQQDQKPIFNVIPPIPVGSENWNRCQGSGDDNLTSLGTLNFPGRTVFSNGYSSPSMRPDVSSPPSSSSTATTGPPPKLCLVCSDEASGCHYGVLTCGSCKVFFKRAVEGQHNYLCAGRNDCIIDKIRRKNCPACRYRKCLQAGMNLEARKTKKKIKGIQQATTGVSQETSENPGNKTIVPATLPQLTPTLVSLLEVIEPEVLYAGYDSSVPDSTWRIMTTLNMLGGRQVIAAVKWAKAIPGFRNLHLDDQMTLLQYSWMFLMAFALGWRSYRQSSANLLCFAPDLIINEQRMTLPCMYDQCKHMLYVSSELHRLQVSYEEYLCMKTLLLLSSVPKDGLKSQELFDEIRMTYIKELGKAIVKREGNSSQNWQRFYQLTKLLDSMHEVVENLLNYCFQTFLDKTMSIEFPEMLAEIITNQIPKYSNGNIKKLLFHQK

MOLECULE	EC50
C[C@@H]1C[C@H]2[C@@H]3C[C@H](F)C4=CC(=O)C=C[C@]4(C)[C@@]3(F)[C@@H](O)C[C@]2(C)[C@]12OC(=O)SC2=O	< 250 nM
CCC(=O)O[C@]1(C(=O)SCc2oc(=O)oc2C)[C@H](C)C[C@H]2[C@@H]3C[C@H](F)C4=CC(=O)C=C[C@]4(C)[C@@]3(F)[C@@H](O)C[C@@]21C	< 500 nM
CSC(=O)[C@@]1(OC(=O)CSC2COC(=O)C2)[C@H](C)C[C@H]2[C@@H]3C[C@H](F)C4=CC(=O)C=C[C@]4(C)[C@@]3(F)[C@@H](O)C[C@@]21C (stereo partly shown)	< 250 nM
CC12CCC(=O)C=C1C(F)CC1C3CC4OC(CSC5CCOC5=O)OC4(C(=O)CO)C3(C)CC(O)C12F (stereo not shown)	< 250 nM
CCC(=O)OC1(C(=O)SC2COC(=O)O2)C(C)CC2C3CC(F)C4=CC(=O)C=CC4(C)C3(F)C(O)CC21C (single isomer, unassigned) [Example 7 isomer A]	< 500 nM

Provide each entry's EC50 from the list below.
1. C[C@]12C=CC(=O)C=C1CC[C@H]1[C@@H]3C[C@H]4CC(=O)O[C@@]4(C(=O)CO)[C@@]3(C)C[C@H](O)[C@@]12F
2. CCC(=O)O[C@]1(C(=O)SCC2CCOC2=O)[C@H](C)C[C@H]2[C@@H]3C[C@H](F)C4=CC(=O)C=C[C@]4(C)[C@@]3(F)[C@@H](O)C[C@@]21C (single isomer, unassigned)

1. < 250 nM
2. < 250 nM
